Molecular target: HIV-1 PR MUT-1 (M46I, I54V, V82A, L10F) (Human immunodeficiency virus type 1 group M subtype C, UniProt O12158, I538V/L494F/M530I/V566A)
Sequence (O12158 485-583 L494F/M530I/I538V/V566A): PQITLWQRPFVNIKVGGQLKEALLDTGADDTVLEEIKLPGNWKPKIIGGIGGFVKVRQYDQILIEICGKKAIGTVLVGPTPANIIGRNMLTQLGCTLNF
Experiment: biochemical
Type: binding, HIV-1 subtype C
Set-up: The HIV-1 PR is a 99 amino acid homodimer; made in house; host or cells: Escherichia coli (NEBExpress)
reported-property: Ki (nM)

>  <compound>
Cc1cccc(C)c1OCC(=O)N[C@@H](Cc1ccccc1)[C@@H](O)C[C@H](Cc1ccccc1)NC(=O)[C@H](C(C)C)N1CCCNC1=O [LPV, lopinavir]

>  <experimental-value>
54.7

$$$$
>  <compound>
CC(C)CN(C[C@@H](O)[C@H](Cc1ccccc1)NC(=O)O[C@H]1CO[C@H]2OCC[C@H]21)S(=O)(=O)c1ccc(N)cc1 [DRV, darunavir]

>  <experimental-value>
26.3

$$$$
